Experiment summary: Half life in rat liver microsomes in presence of NADPH
Assay type: ADME, Microsome
Assay readout: half-life (min)
API: value field is a number in min; no unit string.

Entry `N#Cc1cnc2ccc(-c3c(-c4ccc(F)c(Cl)c4)ncn3CCO)nn12` ; half-life = 50

----------
Experiment summary: Clearance in Sprague Dawley rat at 5 mg/kg, iv
Type: ADME, organism-based
Setup conditions: in vivo
Assay readout: clearance (mL/min/kg)
API: value field is a number in mL/min/kg; no unit string.

Entry `N#Cc1cnc2ccc(-c3c(-c4ccc(F)c(Cl)c4)ncn3CCO)nn12` ; clearance = 5.6

----------
Experiment summary: MRT in Beagle dog at 1 mg/kg, iv
Type: ADME, organism-based, Canis lupus familiaris
Setup conditions: in vivo
Assay readout: MRT (h)
API: value field is a number in h; no unit string.

Entry `N#Cc1cnc2ccc(-c3c(-c4ccc(F)c(Cl)c4)ncn3CCO)nn12` ; MRT = 3.1

----------
Experiment summary: MRT in Balb/C mouse at 5 mg/kg, iv
Format: ADME, organism-based
Setup conditions: in vivo
Assay readout: MRT (h)
API: value field is a number in h; no unit string.

Entry `N#Cc1cnc2ccc(-c3c(-c4ccc(F)c(Cl)c4)ncn3CCO)nn12` ; MRT = 9

----------
Study system: Cytochrome P450 2D6 (Homo sapiens, UniProt P10635)
Sequence (P10635 whole entry): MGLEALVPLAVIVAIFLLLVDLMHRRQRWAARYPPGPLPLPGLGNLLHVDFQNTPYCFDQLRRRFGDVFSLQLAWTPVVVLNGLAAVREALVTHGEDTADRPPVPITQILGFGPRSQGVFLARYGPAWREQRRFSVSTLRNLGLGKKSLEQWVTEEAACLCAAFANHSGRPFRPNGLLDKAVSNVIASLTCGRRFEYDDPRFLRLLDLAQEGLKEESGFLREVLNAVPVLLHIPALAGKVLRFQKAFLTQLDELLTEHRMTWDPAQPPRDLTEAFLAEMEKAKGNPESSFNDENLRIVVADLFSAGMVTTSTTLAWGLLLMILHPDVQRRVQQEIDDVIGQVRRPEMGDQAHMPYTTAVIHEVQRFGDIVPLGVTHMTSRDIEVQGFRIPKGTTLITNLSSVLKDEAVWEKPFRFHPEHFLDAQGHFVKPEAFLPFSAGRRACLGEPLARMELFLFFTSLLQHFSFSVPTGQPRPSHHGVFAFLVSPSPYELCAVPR
Experiment summary: Inhibition of recombinant CYP2D6 (unknown origin)
Assay readout: IC50

Entry `N#Cc1cnc2ccc(-c3c(-c4ccc(F)c(Cl)c4)ncn3CCO)nn12` ; IC50 = > 20 µM

----------
Experiment summary: Tmax in Beagle dog at 5 mg/kg, po
Assay type: ADME, organism-based, Canis lupus familiaris
Setup conditions: in vivo
Assay readout: Tmax (min)
API: value field is a number in min; no unit string.

Entry `N#Cc1cnc2ccc(-c3c(-c4ccc(F)c(Cl)c4)ncn3CCO)nn12` ; Tmax = 40.2

----------
Study system: Nuclear receptor subfamily 1 group I member 2 (Homo sapiens)
Sequence (O75469 whole entry): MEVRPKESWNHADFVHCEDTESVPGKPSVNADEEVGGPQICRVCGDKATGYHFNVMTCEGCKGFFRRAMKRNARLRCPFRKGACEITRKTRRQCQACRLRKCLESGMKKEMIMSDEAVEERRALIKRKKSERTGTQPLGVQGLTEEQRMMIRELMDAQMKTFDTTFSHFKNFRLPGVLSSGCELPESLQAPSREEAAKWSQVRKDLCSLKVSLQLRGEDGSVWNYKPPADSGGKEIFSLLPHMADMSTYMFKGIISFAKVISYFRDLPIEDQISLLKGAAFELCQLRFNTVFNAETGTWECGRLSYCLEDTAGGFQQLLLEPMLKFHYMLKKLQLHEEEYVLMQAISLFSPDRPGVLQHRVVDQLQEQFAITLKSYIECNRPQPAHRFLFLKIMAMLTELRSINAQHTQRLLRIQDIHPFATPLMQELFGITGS
Experiment summary: Activation of PXR (unknown origin)
Assay readout: EC50

Entry `N#Cc1cnc2ccc(-c3c(-c4ccc(F)c(Cl)c4)ncn3CCO)nn12` ; EC50 = > 24 µM

----------
Experiment summary: Total AUC in Sprague Dawley rat at 5 mg/kg, iv
Format: ADME, organism-based
Set-up: dose 5 mg/kg, route intravenous, time AUCmax
Setup conditions: in vivo
Assay readout: AUC (µM·h)
API: value field is a number in µM·h; no unit string.

Entry `N#Cc1cnc2ccc(-c3c(-c4ccc(F)c(Cl)c4)ncn3CCO)nn12` ; AUC = 39.6

----------
Experiment summary: Metabolic stability of compound in human liver microsomes assessed as compound remaining
Format: ADME, Microsome
Assay readout: Stability
Provide the measurement as a number trailed by its unit.

Entry `NC(=O)c1cnc2ccc(-c3c(-c4ccc(F)cc4)ncn3CC(F)F)nn12` ; Stability = 100%

Entry `Cc1cccc(-c2ncn(CC(F)F)c2-c2ccc3nccn3c2)n1` ; Stability = 78%

Entry `Cc1cccc(-c2ncn(CC(F)F)c2-c2ccc3ncc(C(N)=O)n3c2)n1` ; Stability = 97%

Entry `N#Cc1cnc2ccc(-c3c(-c4ccc(F)c(Cl)c4)ncn3CCO)nn12` ; Stability = 77%

Entry `N#Cc1cnc2ccc(-c3c(-c4ccc(F)cc4)ncn3CCO)nn12` ; Stability = 93%

Entry `N#Cc1cnc2ccc(-c3c(-c4ccc(F)cc4)ncn3CC(F)F)nn12` ; Stability = 75%

----------
Experiment summary: Half life in human hepatocytes
Type: ADME, cell-based, Hepatocyte
Assay readout: half-life
Provide the measurement as a number trailed by its unit.

Entry `N#Cc1cnc2ccc(-c3c(-c4ccc(F)c(Cl)c4)ncn3CCO)nn12` ; half-life = 54 min

----------
Experiment summary: Half life in dog liver microsomes in presence of UGT/UDPGA
Format: ADME, Canis lupus familiaris, Microsome
Assay readout: half-life (h)
API: value field is a number in h; no unit string.

Entry `N#Cc1cnc2ccc(-c3c(-c4ccc(F)c(Cl)c4)ncn3CCO)nn12` ; half-life = 1.53

----------
Experiment summary: Half life in dog hepatocytes
Format: ADME, cell-based, Canis lupus familiaris, Hepatocyte
Assay readout: half-life

Entry `N#Cc1cnc2ccc(-c3c(-c4ccc(F)c(Cl)c4)ncn3CCO)nn12` ; half-life = 1.03 h

----------
Experiment summary: Half life in human liver microsomes in presence of NADPH
Type: ADME, Microsome
Assay readout: half-life
Provide the measurement as a number trailed by its unit.

Entry `N#Cc1cnc2ccc(-c3c(-c4ccc(F)c(Cl)c4)ncn3CCO)nn12` ; half-life = 23 min

----------
Experiment summary: Protein binding in mouse serum assessed as unbound fraction
Type: ADME, cell-free
Assay readout: fraction unbound
Enter the number alone.

Entry `N#Cc1cnc2ccc(-c3c(-c4ccc(F)c(Cl)c4)ncn3CCO)nn12` ; fraction unbound = 0.12

----------
Experiment summary: Aqueous solubility of the compound at pH 6.5
Format: physicochemical
Setup conditions: aqueous solution, read-out: solubility
Assay readout: solubility (mg/mL)
API: value field is a number in mg/mL; no unit string.

Entry `N#Cc1cnc2ccc(-c3c(-c4ccc(F)c(Cl)c4)ncn3CCO)nn12` ; solubility = 0.047

----------
Experiment summary: Half life in Sprague Dawley rat at 5 mg/kg, iv
Format: ADME, organism-based
Setup conditions: in vivo
Assay readout: half-life (h)
API: value field is a number in h; no unit string.

Entry `N#Cc1cnc2ccc(-c3c(-c4ccc(F)c(Cl)c4)ncn3CCO)nn12` ; half-life = 5.7

----------
Experiment summary: Total AUC in Balb/C mouse at 10 mg/kg, po
Assay type: ADME, organism-based
Set-up: dose 10 mg/kg, route oral, time AUCmax
Setup conditions: in vivo
Assay readout: AUC (µM·h)
API: value field is a number in µM·h; no unit string.

Entry `N#Cc1cnc2ccc(-c3c(-c4ccc(F)c(Cl)c4)ncn3CCO)nn12` ; AUC = 80.5

----------
Experiment summary: Total AUC in Sprague Dawley rat at 10 mg/kg, po
Type: ADME, organism-based
Set-up: dose 10 mg/kg, route oral, time AUCmax
Setup conditions: in vivo
Assay readout: AUC (µM·h)
API: value field is a number in µM·h; no unit string.

Entry `N#Cc1cnc2ccc(-c3c(-c4ccc(F)c(Cl)c4)ncn3CCO)nn12` ; AUC = 90.8

Cited source for all entries: ChEMBL document CHEMBL4334552
